Would you mind telling me the reported IC50 of each entry?
target: KRas G12C (Homo sapiens, UniProt P01116, G12C); assay: Cellular inhibition of KRas G12C measured by Phospho-ERK in NCI-H358 cells; type: cell-based; conditions: pERK(Thr202/Tyr204) normalized with GAPDH, NCI-H358 cells, 3 hours; read-out: IC50
Sequence (P01116 1-188 isoform P01116-2 G12C): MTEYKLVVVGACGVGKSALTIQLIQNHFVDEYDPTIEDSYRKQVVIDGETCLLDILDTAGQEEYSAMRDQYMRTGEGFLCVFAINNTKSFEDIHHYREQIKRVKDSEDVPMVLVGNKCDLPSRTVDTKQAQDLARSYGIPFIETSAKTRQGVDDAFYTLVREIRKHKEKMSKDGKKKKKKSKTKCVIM

## Task What value of IC50 has been recorded for this entry: C=CC(=O)N1CCN(c2nc(OC[C@H]3CCCN3C)nc3c2CCN(c2cc(O)cc4ccccc24)C3)CC1CC#N (stereo partly shown)
## Result 0.1 to 1000 nM

## Task Could you share which IC50 value was measured for C=CC(=O)N1CCN(c2nc(OC[C@H]3CCCN3C)nc3c2CCN(c2c(C(F)(F)F)ccc4[nH]ncc24)C3)CC1CC#N (stereo partly shown) ?
## Result 0.1 to 1000 nM

## Task Reported IC50 for `C=CC(=O)N1CCN(c2nc(O[C@H](C)CN3CC[C@@H](OC)C3)nc3c2CCN(c2cc(O)cc4ccccc24)C3)CC1` : what is it?
## Result > 1000 nM

## Task Tell me the measured IC50 of C/C=C/C(=O)N1CCN(c2nc(OC[C@@H]3CCCN3C)nc3c2CCN(c2cccc4ccccc24)C3)CC1CC#N (stereo partly shown) [Example 263] , please.
## Result 0.1 to 1000 nM

## Task May I ask what IC50 has been recorded for `CN1CCC[C@H]1COc1nc2c(c(N3CCN(C(=O)/C=C/CN4CCOCC4)[C@@H](CC#N)C3)n1)CCN(c1cccc(Cl)c1C(F)(F)F)C2` ?
## Result 0.1 to 1000 nM

## Task Could you tell me which IC50 is on file for `Cc1cccc2cccc(N3CCc4c(nc(OC[C@@H]5CCCN5C)nc4N4CCN(C(=O)/C=C/CN(C)C)[C@@H](CC#N)C4)C3)c12` ?
## Result 0.1 to 1000 nM

## Task Looking for the measured IC50 of C=CC(=O)N1CCN(c2nc(OCC3CCN(C4CCCCC4)C3)nc3c2CCN(c2cc(O)cc4ccccc24)C3)CC1 (stereo not shown) , can you help?
## Result 0.1 to 1000 nM

## Task Quick one: IC50 of C=CC(=O)N1CCN(c2nc(OC[C@@H]3CCCN3C)nc3c2CCN(c2cccc4cccc(C)c24)C3)CC1CC#N (stereo partly shown) ?
## Result 0.1 to 1000 nM

Could you report IC50 for every entry in the following list?
1. CN1C[C@H](F)C[C@H]1COc1nc2c(c(N3CCN(C(=O)/C=C/CF)[C@@H](CC#N)C3)n1)CCN(c1cccc3cccc(Cl)c13)C2
2. CC(=O)N(C)C/C=C/C(=O)N1CCN(c2nc(OC[C@@H]3CCCN3C)nc3c2CCN(c2cccc4cccc(C)c24)C3)C[C@@H]1CC#N

## Result
["0.1 to 1000 nM", "> 1000 nM"]
